Where do the numbers come from? From the Immune Epitope Database (IEDB).

Exercise: for every item that follows, state its recorded IC50.
Molecular target: HLA-A*02:03
Test: IEDB peptide-MHC binding, cellular MHC/competitive/fluorescence; bounds were set here for any values at or beyond the usual limits of such assays
Conditions: source organism: Vaccinia virus WR
Entry rule: numbers only, all in µM.

Requested read-out IC50, target or system HLA-A*02:03, entry "FTHTTAFFNT"
10.2

Another sequence to look at: "NINFNNSSII"
13.3

Another sequence to look at: "LIYYQNEVT"
5.21

Another sequence to look at: "IAGGVCYYLL"
14.6

Another sequence to look at: "DIVSDSKKIM"
57.2

Another sequence to look at: "HTYHLENDKI"
13.7

Another sequence to look at: "LAYYNSCML"
15.5
